System: NCI-H460 lung
Assay: NCI tumour cell line growth inhibition, 48 h
endpoint label: TGI

O=C([O-])CC(=O)[O-].[NH-][C@@H]1CCCC[C@H]1[NH-].[Pt+4]
> 100 µM

Observed TGI on NCI-H460 lung for N#C/C(C(=O)NCc1ccccc1)=C(/N)N1CCCC1 , please.
> 100 µM

Observed TGI on NCI-H460 lung for CC1(C)OCC(C2OC(C)(C)OC2[C@H]2O[C@@]3(O)[C@H]4[C@H](C=CC[C@@H]42)[C@@H](OCc2ccccc2)[C@H](OCc2ccccc2)[C@H]3OCc2ccccc2)O1 (stereo partly specified) , please.
> 100 µM

Observed TGI on NCI-H460 lung for Cc1cc(O)c(-c2ccc([C@@H](C)CN(C)C)cc2)c2c1[nH]c(=O)c1sccc12 , please.
> 49.1 µM

Observed TGI on NCI-H460 lung for C[As+](C)(c1ccc(Br)c([N+](=O)[O-])c1)c1ccc(Br)c([N+](=O)[O-])c1.O=[N+]([O-])O , please.
> 100 µM

====

Test system: MALME-3M melanoma
Assay: NCI tumour cell line growth inhibition, 48 h
endpoint label: TGI

Use these answered entries as a reference point.
COc1cc2c(c(OC)c1)[C@H](C)N(Cc1ccccc1)C(C)C2 (stereo partly drawn)
> 100 µM
Clc1ccc(/C(=C/c2ccccc2)Cn2ccnc2)cc1
> 100 µM
O=C1Nc2cc(F)ccc2C1=O
> 100 µM
C[C@@H]1CC[C@@]2(NC1)O[C@H]1C[C@H]3[C@@H]4CC[C@H]5C[C@@H](O)CC[C@]5(C)[C@H]4CC[C@]3(C)[C@H]1[C@@H]2C
> 100 µM

Kindly review the next compound as well.
Which value of TGI has been reported for O=C1c2cc3c(cc2-c2c1c1ccc(Cl)cc1c(=O)n2CCCn1ccnc1)OCO3 in the records?
> 100 µM

====

Tested on: SK-MEL-28 melanoma
Experiment: NCI tumour cell line growth inhibition, 48 h
Quick reference for TGI among some molecules

Use these answered entries as a reference point.
CSc1nc(=O)c2nc(-c3cccs3)c(-c3cccs3)nc2n1C
> 100 µM
CCn1c2ccccc2c2cc(C(=O)c3ccc(C)c4ccccc34)ccc21
> 100 µM
CO[P@@]1(=O)O[C@@H](c2ccccc2)[C@H](O)[C@]1(O)c1ccccc1
> 100 µM

Which value of TGI has been reported for CCOC(=O)[C@@H](Cc1ccc(CCl)cc1)NC(C)=O in the records?
86.2 µM

Which value of TGI has been reported for NC(=O)C1CCN(Cc2c(Cl)c(Cl)c(CN3CCC(C(N)=O)CC3)c(Cl)c2Cl)CC1 in the records?
> 100 µM

====

System: HCT-15 colon
Assay: NCI tumour cell line growth inhibition, 48 h
Quick reference for TGI among some compounds

C=C(C)[C@H]1CC23C(=O)[C@@](C)(C[C@H]2C1(C)C)C(=O)C(C(=O)C(C)C)=C3O
33.1 µM

Kindly review the next compound as well.
Which value of TGI has been reported for COCCNc1cncc(C(N)=O)c1 in the records?
> 100 µM

====

Tested on: SK-MEL-5 melanoma
Test: NCI tumour cell line growth inhibition, 48 h
endpoint label: TGI

Use these answered entries as a reference point.
O=P(O)(O)OCC1OC(n2cnc3c(NCc4ccccc4)ncnc32)C(O)C1O (stereo not drawn)
> 100 µM
CC(=O)Oc1ccn2nc(C)c(Br)c2c1
> 100 µM

Observed TGI on SK-MEL-5 melanoma for CC(=O)[O-].N.N.N.N.[Co+3].[O-][Cl+3]([O-])([O-])[O-].[OH3+] , please.
> 100 µM

====

Test system: ACHN renal
Assay: NCI tumour cell line growth inhibition, 48 h
endpoint label: GI50

C1=CCCC=CCC1.C[PH+](C)C.C[PH+](C)C.C[PH+](C)C.[Cl-].[Ir]
> 100000 nM
N#CC1=C(N)NC(=O)NC12Nc1ccccc1N2
> 100000 nM
CC[PH+](CC)CC.[Cl][Au]
1610 nM
COc1ccc(S(=O)(=O)N(C(C)=O)c2ccccc2/C=C/c2cc[n+]([O-])cc2)cc1
2360 nM
Cc1cccc2c1[nH]c(=O)c1c3ccccc3cn21
4080 nM

Kindly review the next molecule as well.
Which value of GI50 has been reported for C[N+](C)=c1ccc2nc3c(cc(NCCCNc4cc5oc6cc(=[N+](C)C)ccc-6nc5c5ccccc45)c4ccccc43)oc-2c1 in the records?
2170 nM

====

System: SF-295 CNS
Assay: NCI tumour cell line growth inhibition, 48 h
endpoint label: TGI

Use these answered entries as a reference point.
CSc1nc(=O)c2nc(-c3cccs3)c(-c3cccs3)nc2n1C
> 100 µM
O=C(Nc1nn(C(=O)c2cccnc2)c(=O)s1)c1ccc(Cl)cc1
> 100 µM

Which value of TGI has been reported for CO[P@@]1(=O)O[C@@H](c2ccccc2)[C@H](O)[C@]1(O)c1ccccc1 in the records?
> 100 µM

Which value of TGI has been reported for CNC(=S)N1CCN(C(C)=O)C1=S in the records?
> 100 µM

Which value of TGI has been reported for CC(=N/NC(=S)N(C)C)/C(=N\NC(=S)N(C)C)c1ccccc1 in the records?
4.46 µM

Which value of TGI has been reported for O=C1NC2C(O)CCCCC2C12CCCCC2 (stereo unspecified) in the records?
> 100 µM

====

Quick reference for TGI among some molecules
Tested on: SNB-75 CNS
Experiment: NCI tumour cell line growth inhibition, 48 h
Lab book: enter the figure in µM, no units written.

COc1cc2c3c(n(CCCNCCCN)c(=O)c2cc1OC)-c1cc2c(cc1C3=O)OCO2
36.7

Which value of TGI has been reported for CN(C)CCCNc1nc2ccccc2c2[nH]c3ccccc3c12 in the records?
3.78

====

System: SK-OV-3 ovarian
Experiment: NCI tumour cell line growth inhibition, 48 h
endpoint label: TGI

Which value of TGI has been reported for COc1ccc(S(=O)(=O)N(C(C)=O)c2ccccc2/C=C/c2cc[n+]([O-])cc2)cc1 in the records?
> 10 µM

Which value of TGI has been reported for C[CH2][Sn]([CH2]C)([O]C(=O)c1ccc(F)cc1)[O]C(=O)c1ccc(F)cc1 in the records?
> 100 µM

Which value of TGI has been reported for Cc1cc(-c2cc(C(C)(C)C)c(O)c(C(C)(C)C)c2)c(C)cc1-c1cc(C(C)(C)C)c(O)c(C(C)(C)C)c1 in the records?
> 100 µM

Which value of TGI has been reported for COCCNc1cncc(C(N)=O)c1 in the records?
> 100 µM

====

Test system: HCC-2998 colon
Test: NCI tumour cell line growth inhibition, 48 h
endpoint label: TGI

COc1ccc2[nH]c(C(=O)OCc3ccc4c(Cl)cc(Cl)c(O)c4n3)cc2c1
3.29 µM
c1ccc(OC2=NC3=S(S2)SC(Oc2ccccc2)=N3)cc1
35.2 µM
CC(=O)NN1C(=O)C(Cc2ccccc2)c2ccccc21 (stereo not given)
> 100 µM
COc1ccc2nc3cc(Cl)ccc3c(Nc3cc(CN4CCCC4)c(O)c(CN4CCCC4)c3)c2n1
2.91 µM

Kindly review the next compound as well.
Which value of TGI has been reported for CCc1nc2c(c(N(C)C)c1C(=O)OC)CCc1ccccc1-2 in the records?
67.5 µM

====

Tested on: NCI-H460 lung
Assay: NCI tumour cell line growth inhibition, 48 h
Quick reference for TGI among some compounds

CC1SC(c2ccc(Cl)cc2Cl)N(NC(=O)C(O)c2ccccc2)C1=O (stereo unspecified)
> 100 µM
CC(C)=CCC[C@@H](C)C1=C(Nc2ccccc2F)C(O)=C(C)C(=O)C1=O
> 100 µM
N#Cc1c(-c2ccc([N+](=O)[O-])cc2)c(C#N)c(=O)n(NS(=O)(=O)c2ccccc2)c1O
> 100 µM
CCOC(=O)c1c(-c2ccccc2)c(OC)cn1C
> 10 µM
O=P(O)(O)OCC1OC(n2cnc3c(NCc4ccccc4)ncnc32)C(O)C1O (stereo unspecified)
> 59.3 µM

Kindly review the next compound as well.
Which value of TGI has been reported for CSc1ncc2c(n1)-c1ccccc1OC2NC1CC1 (stereo unspecified) in the records?
> 100 µM

====

Quick reference for TGI among some compounds
Tested on: MALME-3M melanoma
Test: NCI tumour cell line growth inhibition, 48 h

OC(CC(O)(C(F)(F)Cl)C(F)(F)Cl)c1ccccc1 (stereo not drawn)
> 10 µM
c1ccc2c(c1)cc1ccc3cccc4ccc2c1c34
> 100 µM

Kindly review the next compound as well.
Which value of TGI has been reported for Cc1cc(S(=O)(=O)N=C2Nc3cccc4cccc(c34)N2)c(S)cc1Cl in the records?
> 100 µM

====

Quick reference for TGI among some compounds
System: SK-MEL-28 melanoma
Test: NCI tumour cell line growth inhibition, 48 h

Use these answered entries as a reference point.
CCc1nc2c(c(N(C)C)c1C(=O)OC)CCc1ccccc1-2
> 100 µM
CCOC(=O)CN1C(=O)c2cc([N+](=O)[O-])cc3cc([N+](=O)[O-])cc(c23)C1=O
> 100 µM
CN1c2ccccc2C2=C(c3ccccc3)CC[C@@H](C(=O)N3C4CC5CC[C@@]4(CS3(=O)=O)C5(C)C)[C@@H]21 (stereo not given in full)
> 100 µM
Cc1cccc2c1CC(Cc1ccccc1C(=O)O)C2=O (stereo not given)
> 100 µM
NC(=O)c1ccc(Cl)c([N+](=O)[O-])c1
> 100 µM

Which value of TGI has been reported for CC(=O)Oc1ccc2c(-c3ccccc3)c(Oc3ccc(Cl)cc3)c(=O)oc2c1 in the records?
31.6 µM

Which value of TGI has been reported for O=c1c2cc([N+](=O)[O-])ccc2oc2nc3n(c(=O)c12)CCCS3 in the records?
> 100 µM

Which value of TGI has been reported for Oc1ccccc1/C=N/N1C(=S)N(C23CC4CC(CC(C4)C2)C3)C(=Nc2ccccc2)C1=Nc1ccccc1 in the records?
> 100 µM

Which value of TGI has been reported for O=C1C=CC(=O)c2c(O)c(N3CCC[C@@H]3CO)c(Cl)c(O)c21 in the records?
3.24 µM

Which value of TGI has been reported for C=C(C)[C@H]1CC23C(=O)[C@@](C)(C[C@H]2C1(C)C)C(=O)C(C(=O)C(C)C)=C3O in the records?
28.6 µM

Which value of TGI has been reported for CC[PH+](CC)CC.[Cl][Au] in the records?
2.35 µM

Which value of TGI has been reported for CCC1([N+](=O)[O-])CN(N=O)C1 in the records?
> 100 µM
